Reported Protection by item:
test system: Mus musculus; assay: Tested for physostigmine lethality at a dose of 5 mg/kg after oral administration in mice; type: functional
Supply the numeric figure in %, leaving out any unit text.

Past entries and their recorded results:
Please report Protection for the following compound: CN1CCN(C2=Nc3cc(F)ccc3Nc3sc4c(c32)CCCC4)CC1
46

Please report Protection for the following compound: O=C(CCCN1CCC(O)(c2ccc(Cl)cc2)CC1)c1ccc(F)cc1
0

Please report Protection for the following compound: Cc1csc2c1C(N1CCN(C)CC1)=Nc1cc(F)ccc1N2
65

Please report Protection for the following compound: Cc1cc2c(s1)Nc1ccc(F)cc1N=C2N1CCN(C)CC1
64

---
Please report Protection for the following compound: CCc1c(C)sc2c1C(N1CCN(C)CC1)=Nc1cc(F)ccc1N2
60

Please report Protection for the following compound: Cc1sc2c(c1C)C(N1CCN(C)CC1)=Nc1cc(F)ccc1N2
33
